Biological target: IL-23 (human, p19/p40 heterodimer) (Homo sapiens, UniProt Q9NPF7;P29460 SEQ:20-189,SEQ:23-328)
Sequence (Q9NPF7 20-189, chain 1 of 2): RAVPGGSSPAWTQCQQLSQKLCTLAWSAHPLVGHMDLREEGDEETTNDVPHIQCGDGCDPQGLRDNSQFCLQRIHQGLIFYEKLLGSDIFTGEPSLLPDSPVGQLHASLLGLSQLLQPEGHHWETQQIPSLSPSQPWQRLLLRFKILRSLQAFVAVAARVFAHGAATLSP
Sequence (P29460 23-328, chain 2 of 2): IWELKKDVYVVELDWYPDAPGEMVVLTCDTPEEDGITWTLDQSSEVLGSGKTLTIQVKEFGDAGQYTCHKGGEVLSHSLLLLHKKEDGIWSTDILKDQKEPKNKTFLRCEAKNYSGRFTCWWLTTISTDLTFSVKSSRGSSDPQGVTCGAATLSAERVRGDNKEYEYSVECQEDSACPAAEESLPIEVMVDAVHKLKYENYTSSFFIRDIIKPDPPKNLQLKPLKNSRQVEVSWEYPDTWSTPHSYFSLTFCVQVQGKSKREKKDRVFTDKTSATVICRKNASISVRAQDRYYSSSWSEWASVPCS
Assay: filter; -tRNA
Settings: tags: R&D Systems, carrier free
Attribute: pKd
Scale for pKd: -log10 of concentration given in mol/L; no unit attached.

INSERT INTO measurements (binder, attributemeasured, valueobserved) VALUES
  ('ACAGGCAAGUAAUUGGGGAGUGCGGGCGGGGUGU (mixed, deoxy A,G; 2''-OMe C,U; PS 28-29 [PS linkage 28-29; 2''-OMe C,U at 2,6,10,13,14,21,23,27,32,34; all A,G 2''-deoxy]) [ARC1167]', 'pKd', 6.97);

Exercise: Field request: pKd | item: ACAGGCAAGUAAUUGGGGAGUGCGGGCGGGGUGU (mixed, deoxy A,G; 2'-OMe C,U; PS 27-28 [PS between 27-28; 2'-OMe C,U at 2,6,10,13,14,21,23,27,32,34; deoxy A,G at all other positions]) [ARC1166]
Key: 6.88

Exercise: Entry under review: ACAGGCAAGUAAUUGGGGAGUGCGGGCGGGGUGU (mixed, deoxy A,G; 2'-OMe C,U; PS 32-33 [PS linkage 32-33; 2'-OMe C,U at 2,6,10,13,14,21,23,27,32,34; all A,G 2'-deoxy]) [ARC1168] . Reported pKd?
Key: 7.09

Exercise: Find the recorded pKd belonging to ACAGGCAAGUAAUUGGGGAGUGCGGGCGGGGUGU (mixed, deoxy A,G; 2'-OMe C,U; PS 22-23 [PS between 22-23; 2'-OMe C,U at 2,6,10,13,14,21,23,27,32,34; deoxy A,G at all other positions]) [ARC1164] and report it.
Key: 7.10
